Attribution: patent US11247973B2

Tested on: MDR1
procedure_details: MDR1-MDCK permeability assay
Type: in vitro ADME
condition_parameters: dog, 10 μM, 60 min, read-out: Permeability A2B

[
  {
    "smiles_record": "O=C(CNc1c(F)c(F)nc(F)c1F)N[C@H]1N=C(c2ccccc2)c2ccccc2NC1=O",
    "Papp A→B at 60 min, 10 μM (×10⁻⁶ cm/s)": 0.553
  }
]

###

Tested on: HepG2 cells
procedure_details: Cell cytotoxicity CC50, HepG2 cells (CellTox Green)
Assay type: cell-based
condition_parameters: 48-hour incubation, multiple values = multiple test occasions, read-out: Tox CC50
# key: entry, value: CC50

[
  {
    "compound": "O=C(N[C@H]1N=C(c2ccccc2)c2ccccc2NC1=O)[C@H](Cc1ccccc1)Nc1c(F)c(F)nc(F)c1F [Compound 11]",
    "study_system": "HepG2 cells",
    "CC50": "> 25 µM"
  },
  {
    "compound": "CC(C)[C@@H](Nc1c(F)c(F)nc(F)c1F)C(=O)N[C@H]1N=C(c2ccccc2)c2ccccc2NC1=O [Compound 8]",
    "study_system": "HepG2 cells",
    "CC50": "16.3 µM"
  },
  {
    "compound": "O=C1Nc2ccccc2C(c2ccccc2)=N[C@@H]1NC(=O)[C@H]1CCCN1c1c(F)c(F)nc(F)c1F [Compound 6]",
    "study_system": "HepG2 cells",
    "CC50": "> 25 µM"
  },
  {
    "compound": "CC(C)[C@H](Nc1c(F)c(F)nc(F)c1F)C(=O)N[C@H]1N=C(c2ccccc2)c2ccccc2NC1=O [Compound 7]",
    "study_system": "HepG2 cells",
    "CC50": "> 25 µM"
  }
]

###

Tested on: RSV
procedure_details: Cytopathic effect (CPE) assay
Type: cell-based
condition_parameters: human respiratory syncytial virus, read-out: CPE IC50
Method: Cells were obtained from ATCC and the virus preparation was subjected to one round of centrifugation through a 40% (V/V) glycerol to remove any interferon produced from infected cells. […] Cells were allowed to grow for 6-8 days to mimic a TCID50 assay after which cell viability was determined by adding Almar blur (similar to XT) and reading at 600 nm (excitation 540 nm).
pIC50: −log10 of the molar value.
measure_name: pIC50

[
  {
    "smiles_record": "CCOc1nc(F)c(F)c(NCC(=O)N[C@H]2N=C(c3ccccc3)c3ccccc3NC2=O)c1F",
    "study_system": "RSV",
    "measured_value": 5.60
  }
]

###

Consider the following molecules and their measured CC50 at 48 h readings.
procedure_details: Cell cytotoxicity CC50, HepG2 cells (CellTox Green)
Assay type: cell-based
condition_parameters: human, 48-hour incubation, multiple values = multiple test occasions, read-out: Tox CC50

[
  {
    "smiles_record": "CC(C)[C@H](Nc1c(F)c(F)nc(F)c1F)C(=O)N[C@H]1N=C(c2ccccc2)c2ccccc2NC1=O",
    "CC50 at 48 h": "16 µM"
  },
  {
    "smiles_record": "C[C@@H](Nc1c(F)c(F)nc(F)c1F)C(=O)N[C@H]1N=C(c2ccccc2)c2ccccc2NC1=O",
    "CC50 at 48 h": "> 25 µM"
  },
  {
    "smiles_record": "C[C@H](Nc1c(F)c(F)nc(F)c1F)C(=O)N[C@H]1N=C(c2ccccc2)c2ccccc2NC1=O",
    "CC50 at 48 h": "> 25 µM"
  },
  {
    "smiles_record": "CC(C)[C@@H](Nc1c(F)c(F)nc(F)c1F)C(=O)N[C@H]1N=C(c2ccccc2)c2ccccc2NC1=O",
    "CC50 at 48 h": "> 25 µM"
  },
  {
    "smiles_record": "O=C(CNc1cc(Cl)ncn1)N[C@H]1N=C(c2ccccc2)c2ccccc2NC1=O",
    "CC50 at 48 h": "> 25 µM"
  },
  {
    "smiles_record": "O=C(CNc1nc(F)c(F)c(N2CCOCC2)c1F)N[C@H]1N=C(c2ccccc2)c2ccccc2NC1=O",
    "CC50 at 48 h": "> 25 µM"
  }
]

###

procedure_details: Microsomal clearance, dog
Assay type: in vitro ADME
condition_parameters: male, Beagle, pooled liver microsomes, pH 7.4, 0.5 mg/mL protein, read-out: Intrinsic clearance - dog

[
  {
    "smiles_record": "O=C(CNc1c(F)c(F)nc(F)c1F)N[C@H]1N=C(c2ccccc2)c2ccccc2NC1=O",
    "microsomal CLint at 3 μM, µL/min/mg": 7.05
  }
]

###

procedure_details: MTT cell toxicity assay
Format: cell-based
condition_parameters: African green monkey, Vero cells

[
  {
    "molecule": "O=C(CNc1c(F)c(F)nc(F)c1F)N[C@H]1N=C(c2ccccc2)c2ccccc2NC1=O [Compound 2]",
    "CC50 at 48 h (µM)": 63
  }
]

###

System: MDR1
procedure_details: MDR1-MDCK permeability assay
Type: in vitro ADME
condition_parameters: dog, 10 μM, 60 min, read-out: Permeability B2A

[
  {
    "smiles_record": "O=C(CNc1c(F)c(F)nc(F)c1F)N[C@H]1N=C(c2ccccc2)c2ccccc2NC1=O",
    "study_system": "MDR1",
    "Papp B→A at 60 min, 10 μM, ×10⁻⁶ cm/s": 76.3
  }
]

###

procedure_details: Microsomal clearance, rat
Assay type: in vitro ADME
condition_parameters: male, Sprague Dawley, pooled liver microsomes, pH 7.4, read-out: t½ - rat
measure_name: half-life at 3 μM (min)

[
  {
    "compound": "O=C(CNc1c(F)c(F)nc(F)c1F)N[C@H]1N=C(c2ccccc2)c2ccccc2NC1=O [Compound 2]",
    "readout_units": "min",
    "measured_value": 47.5
  }
]

###

procedure_details: Mouse in vivo pharmacokinetic assay
Design: species or system male CD-1 mice
condition_parameters: male, CD-1, plasma, IV 1 mg/kg, read-out: IV t½

[
  {
    "smiles_record": "O=C(CNc1c(F)c(F)nc(F)c1F)N[C@H]1N=C(c2ccccc2)c2ccccc2NC1=O",
    "half-life / min": 59
  }
]

###

procedure_details: Microsomal clearance, rat
Assay type: in vitro ADME
condition_parameters: male, Sprague Dawley, pooled liver microsomes, pH 7.4, 0.5 mg/mL protein, read-out: Intrinsic clearance - rat

[
  {
    "compound": "O=C(CNc1c(F)c(F)nc(F)c1F)N[C@H]1N=C(c2ccccc2)c2ccccc2NC1=O [Compound 2]",
    "microsomal CLint at 3 μM (µL/min/mg)": 29.2
  }
]

###

System: MDR1
procedure_details: MDR1-MDCK permeability assay
Format: in vitro ADME
condition_parameters: dog, read-out: Efflux ratio B2A/A2B
Description: MDR1-MDCK cells obtained from the NIH (Rockville, Md., USA) are used between passage numbers 6-30. Cells are seeded onto Millipore Multiscreen Transwell plates at 3.4×10^5 cells/cm^2. The cells are cultured in DMEM and media is changed on day 3. On day 4 the permeability study is performed. […] Compound 2 permeability is assessed in duplicate. […] Compound 2 and control compounds are quantified by LC-MS/MS cassette analysis using an 8-point calibration with appropriate dilution of the samples. […]

[
  {
    "smiles_record": "O=C(CNc1c(F)c(F)nc(F)c1F)N[C@H]1N=C(c2ccccc2)c2ccccc2NC1=O",
    "study_system": "MDR1",
    "efflux ratio at 60 min, 10 μM": 138
  }
]

###

procedure_details: Microsomal clearance, human
Format: in vitro ADME
condition_parameters: both, pooled liver microsomes, pH 7.4, 0.5 mg/mL protein, read-out: Intrinsic clearance - human
Protocol: Pooled human liver microsomes (pooled male and female), pooled rat liver microsomes (male Sprague Dawley rats) and pooled dog liver microsomes (male Beagle dog) are purchased from a reputable commercial supplier and stored at −80° C. prior to use. […] Compounds are incubated for 0, 5, 15, 30 and 45 min. […] Following protein precipitation, the sample supernatants are combined in cassettes of up to 4 compounds, internal standard is added and samples analysed by LC-MS/MS. […]

[
  {
    "smiles_record": "O=C(CNc1c(F)c(F)nc(F)c1F)N[C@H]1N=C(c2ccccc2)c2ccccc2NC1=O",
    "microsomal CLint at 3 μM": "52.6 µL/min/mg"
  }
]
